Origin of measurements: PubChem BioAssay (NCI)

- Procedure text: NCI Yeast Anticancer Drug Screen. Data for the rad50 strain (AID 155);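 further: 0% = growth of vehicle-only cultures of the same strain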
- Assay setup: S. cerevisiae rad50 strain growth inhibition; at 50.0 µM
This is part of a sample that, as a whole, favours compounds with a hit. Of some 79,000 tested, about 15% had one in any assay. Activity calls are given as the source filed them. No stated cut-off is given here; in the data, active means growth inhibition above about 70%; inactive means the rest.
Outcome codes: class 1 for active, class 0 for inactive

• CCC(=O)c1ccc(N)cc1 = class 0
• C=C[CH2][Sn]([CH2]C=C)([CH2]CCC)[CH2]CCC = class 1
• O=C(O)c1cc([N+](=O)[O-])cc([N+](=O)[O-])c1 = class 0
• Cn1cnnc1[N+](=O)[O-] = class 0
• CNC(Cc1ccccc1)c1ccc(O)c(OC)c1 (stereo unspecified) = class 0
• CC1(C)O[C@]2(C)CC[C@@H]1[C@@H](O)[C@@H]2N1CCCC1 = class 0
• CN(C)C(=O)Oc1ccc([N+](=O)[O-])cc1OC(=O)N(C)C = class 0
• CCC1C(=O)OCC1Cc1cncn1C (stereo unspecified) = class 0
• Cc1ccc(S(N)(=O)=O)cc1 = class 0
• Cc1cccc(C#N)c1 = class 0
• CCc1ccc([N+](=O)[O-])cc1 = class 0
• Cc1cc(-c2ccccc2)cc(-c2ccccc2)[o+]1 = class 0
• ClCCN(CCCl)c1ccc(/C=N/c2nc(-c3ccccc3)cs2)cc1 = class 0
• CCCC(OP(=S)(OCC)OCC)c1ccc(Cl)cc1 (stereo unspecified) = class 0
• C1CCN2CC34CC(CC5CCCN(C6CCCC3N6)C54)C2C1 (stereo unspecified) = class 0
• CN1CCN(c2ccc(Cl)cc2)CC1 = class 0
